The following substances are shown together with reported APOE RNA (% control) Cortex values.
Test system: human APOE RNA
Assay: Activity in APOE C57BL/6NTac-Apoeem7250 knock-in mice, single ICV bolus, 8 weeks (Example 11)
Format: in vivo
Conditions: cortex; single ICV bolus 300 μg; 8 weeks post treatment; normalized to mouse Ppia
Strand notation (5' to 3'): a small letter for the sugar, then the base; units joined by * are phosphorothioate-linked, units joined directly phosphodiester-linked; [ ] holds rarer units or linkages, { } end groups; capitals alone tell only the bases. [ms] = mesyl phosphoramidate linkage; e = 2'-O-(2-methoxyethyl) (MOE); k = constrained ethyl (cEt); [5mC] = 5-methylcytosine; d = 2'-deoxy (DNA)
Lab book: enter the figure in % control, no units written.

Worked cases, answers included:
| Substance | Target system | Value units | APOE RNA (% control) Cortex |
| --- | --- | --- | --- |
| 1809688: mixed MOE/cEt gapmer CTTGGTGAATCTTTATTAA, sugar eeeekddddddddddkkee, linkages sosssszzzssssszoss (e[5mC]*eTeT*eG*kG*dT*dG[ms]dA[ms]dA[ms]dT*d[5mC]*dT*dT*dT*dA[ms]kTkT*eA*eA) [compound 1809688] | human APOE RNA | % control | 22 |
| 1809690: mixed MOE/cEt gapmer CTTGGTGAATCTTTATTAA, sugar eeeekddddddddddkkek, linkages sosssszzzssssszoss (e[5mC]*eTeT*eG*kG*dT*dG[ms]dA[ms]dA[ms]dT*d[5mC]*dT*dT*dT*dA[ms]kTkT*eA*kA) [compound 1809690] | human APOE RNA | % control | 26 |
| Compound No. 1517578: comparator of WO 2022/066956; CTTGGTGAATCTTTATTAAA, sugar eeeeeddddddddddeeeee, linkages sooosssssssssssooss (MOE gapmer, mixed PS/PO linkages, chemistry not fully specified) [reference compound] | human APOE RNA | % control | 66 |

Please look up its APOE RNA (% control) Cortex: 1652910: 5-10-5 MOE gapmer GGTGAATCTTTATTAAACTA, linkages sooosszzsssssssooss (antisense eG*eGeTeGeA*dA*dT[ms]d[5mC][ms]dT*dT*dT*dA*dT*dT*dA*eAeAe[5mC]*eT*eA) [compound 1652910]
82
